Target: Quinolone resistance protein NorA (Staphylococcus aureus)
Assay: Inhibition of NorA efflux pump in Staphylococcus aureus 1199B assessed as reduction in EtBr efflux incubated for 20 mins measured for 5 mins by real-time fluorometric analysis
Measure name: IC50

1. CCOC(=O)c1c(C)n(Cc2ccccc2)c2ccc(OCCN3CCN(C)CC3)cc12 :: 10.1 µM
2. CCOC(=O)c1c(C)n(Cc2ccc([N+](=O)[O-])cc2)c2ccc(OCCCN3CCCCC3)cc12 :: 6.5 µM
3. CCOC(=O)Cc1c(C)n(Cc2ccccc2)c2ccc(OCCCN3CCCCCC3)cc12 :: 6.1 µM
4. CCOC(=O)c1c(C)n(Cc2ccccc2)c2ccc(OCC(O)CN3CCCCCC3)cc12 (stereo not given) :: 6.8 µM
5. CCOC(=O)c1c(C)n(Cc2ccc(F)cc2)c2ccc(OCCCN3CCCCC3)cc12 :: 8.7 µM

====

Entries and their inhibition values follow.
Target: Quinolone resistance protein NorA (Staphylococcus aureus) (UniProt P0A0J7)
Sequence (whole entry): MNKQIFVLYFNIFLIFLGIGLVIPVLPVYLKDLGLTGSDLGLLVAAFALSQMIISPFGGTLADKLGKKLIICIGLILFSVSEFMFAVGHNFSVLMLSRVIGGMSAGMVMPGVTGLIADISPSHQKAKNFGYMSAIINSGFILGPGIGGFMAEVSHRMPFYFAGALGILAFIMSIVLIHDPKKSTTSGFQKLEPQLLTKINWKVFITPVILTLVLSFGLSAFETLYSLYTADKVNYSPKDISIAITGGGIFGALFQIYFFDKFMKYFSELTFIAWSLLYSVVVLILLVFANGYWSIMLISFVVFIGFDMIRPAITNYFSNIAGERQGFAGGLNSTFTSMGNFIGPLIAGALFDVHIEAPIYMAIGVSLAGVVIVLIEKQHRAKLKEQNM
Assay: Inhibition of NorA efflux pump in Staphylococcus aureus 1199B assessed as reduction in EtBr efflux at 50 uM incubated for 20 mins measured for 5 mins by real-time fluorometric analysis
Measure name: inhibition (%)

1) CCOC(=O)c1c(C)n(Cc2ccccc2)c2ccc(OCCCN3CCOCC3)cc12 :: 98.6
2) CCOC(=O)c1c(C)n(Cc2ccccc2)c2ccc(OCCN3CCOCC3)cc12 :: 90.9
3) CCOC(=O)Cc1c(C)n(Cc2ccccc2)c2ccc(OCCCN3CCCCCC3)cc12 :: 98.4
4) CCOC(=O)c1c(C)n(Cc2ccccc2)c2ccc(OCC(O)CN3CCOCC3)cc12 (configuration not stated) :: 99
5) CCOC(=O)c1c(C)n(Cc2ccccc2[N+](=O)[O-])c2ccc(OCCCN3CCCCC3)cc12 :: 91.8
6) CCOC(=O)c1c(C)n(Cc2ccccc2)c2ccc(OCC(N)CO)cc12 (configuration not stated) :: 100
7) CCOC(=O)c1c(C)n(Cc2ccccc2OC)c2ccc(OCCCN3CCCCC3)cc12 :: 87.9
8) CCOC(=O)c1c(C)n(Cc2ccccc2)c2ccc(OCCCNCc3ccccc3)cc12 :: 45.4
9) CCOC(=O)c1c(C)n(Cc2ccccc2)c2ccc(OCCCN3CCCCC3)cc12 :: 98.5
10) CCOC(=O)c1c(C)n(Cc2cccc(C)c2)c2ccc(OCCCN3CCCCC3)cc12 :: 70.9
11) CCOC(=O)c1c(C)[nH]c2ccc(OCCCN3CCCCC3)cc12 :: 34.2
12) CCOC(=O)c1c(C)n(Cc2ccccc2F)c2ccc(OCCCN3CCCCC3)cc12 :: 89
13) CCOC(=O)c1c(C)n(Cc2ccccc2)c2ccc(O)cc12 :: 1
14) CCOC(=O)c1c(C)n(Cc2ccccc2)c2ccc(OCCN3CCN(C)CC3)cc12 :: 99.7
15) CCOC(=O)c1c(C)n(Cc2ccccc2)c2ccc(OCC(O)CN)cc12 (configuration not stated) :: 100
16) CCOC(=O)c1c(C)n(Cc2ccc(F)cc2)c2ccc(OCCCN3CCCCC3)cc12 :: 91.1
17) CCOC(=O)c1c(C)n(Cc2ccccc2)c2ccc(OC(C)=O)cc12 :: 20.4
18) CCOC(=O)c1c(C)n(Cc2cccc(C(F)(F)F)c2)c2ccc(OCCCN3CCCCC3)cc12 :: 12.9
19) CCOC(=O)c1c(C)n(Cc2ccccc2)c2ccc(OCCCN3CCNCC3)cc12 :: 100
20) CCOC(=O)c1c(C)n(Cc2ccccc2)c2ccc(OCCN(C)C)cc12 :: 98.2
21) CCOC(=O)c1c(C)n(Cc2cccc(F)c2)c2ccc(OCCCN3CCCCC3)cc12 :: 89.7
22) CCOC(=O)c1c(C)n(Cc2ccccc2)c2ccc(OCCCN)cc12 :: 100
